Entry source: the supplement of paper PMC4466140

# Target of assay: AgBem1-D1
# Protocol text: SPOT peptide array binding signal intensity (averaged, normalized) (arbitrary units (background-subtracted, floor 0; scale differs between SH3 domains)); higher = stronger binding of the SH3 domain to the peptide
Attribute measured: SPOT peptide array binding signal intensity
API doc: respond with a numeric literal and nothing else, no unit.

Please review the entries below; each comes with its answer.
| Binder | Observed result |
| --- | --- |
| APERAVPILPPRNNV | 47.5 |
| NFFRKKLGIPRKLKR | 94 |

query: Output SPOT peptide array binding signal intensity of `YVRRRPRVRLEPLLS`
result: 62.5
